- Tested on: Mycobacterium tuberculosis replicating, CFU count, imaging
- Measurement Description: M. tuberculosis CFU reduction, CFU imaging, dry powder, dose response (AID 743485)
Provide the reported AC90 of each item.

[ask] # get_value(readout= AC90, system= Mycobacterium tuberculosis replicating, CFU count, imaging) for Cn1c(NC(=O)c2ccccc2)nc2c3ncccc3ccc21
[reply] < 8 µM

[ask] Okay, and Cn1c(NC(=O)c2ccccc2)nc2c3nccnc3ccc21 ?
[reply] < 16 µM

[ask] Okay, and Cn1c(NC(=O)c2ccccc2)nc2c3cnccc3ccc21 ?
[reply] < 8 µM

[ask] Okay, and Cn1c(NC(=O)c2ccccc2)nc2c3ccncc3ccc21 ?
[reply] < 8 µM

Attribution: PubChem BioAssay AID743485
